biological target: chemically synthesized HIV protease (Human immunodeficiency virus type 1 group M subtype B, UniProt P12497, C555A/C583A); construct: The HIV protease was chemically synthesized; made in house; host or cells: chemical synthesis (no expression host); format: biochemical; conditions: inhibitor 5mM as headed in Tables 3-6
Measured Endpoint: Residual Activity (%)
Number in %, nothing else.

Ask: Read off the recorded Residual Activity (%) for CS(=O)(=O)C[C@H](NC(=O)COc1cccc2ccccc12)C(=O)N[C@@H](Cc1ccccc1)[C@H](O)C(=O)N1CSC[C@H]1C(=O)N[C@H](C(N)=O)c1ccccc1
Reply: 93.9

Ask: Read off the recorded Residual Activity (%) for CS(=O)(=O)C[C@H](NC(=O)COc1cccc2ccccc12)C(=O)N[C@@H](Cc1ccccc1)[C@H](O)C(=O)N1CSC[C@H]1C(=O)NCC(N)=O
Reply: 77.9

Ask: Read off the recorded Residual Activity (%) for CC(C)(C)NC(=O)[C@@H]1CSCN1C(=O)[C@@H](O)[C@H](Cc1ccccc1)NC(=O)[C@H](CS(C)(=O)=O)NC(=O)COc1cccc(C(=O)N2CCOCC2)c1
Reply: 44.5

Ask: Read off the recorded Residual Activity (%) for CC(CC(N)=O)NC(=O)[C@@H]1CSCN1C(=O)[C@@H](O)[C@H](Cc1ccccc1)NC(=O)[C@H](CS(C)(=O)=O)NC(=O)COc1cccc2ccccc12 (stereo partly drawn)
Reply: 33.0

Ask: Read off the recorded Residual Activity (%) for CS(=O)(=O)C[C@H](NC(=O)COc1cccc2ccccc12)C(=O)N[C@@H](Cc1ccccc1)[C@H](O)C(=O)N1CSC[C@H]1C(=O)NCCCC(N)=O
Reply: 65.0

Ask: Read off the recorded Residual Activity (%) for CC(CNC(=O)[C@@H]1CSCN1C(=O)[C@@H](O)[C@H](Cc1ccccc1)NC(=O)[C@H](CS(C)(=O)=O)NC(=O)COc1cccc2ccccc12)C(N)=O (stereo partly drawn)
Reply: 46.6
